All figures here come from patent US20150218281A1.

measuredTarget: T1, recombinant human OX40L (extracellular domain, R&D Systems) (human, UniProt P23510 51-183)
T1 construct: also called hOX40L; rec. hOX40L
T1 sequence: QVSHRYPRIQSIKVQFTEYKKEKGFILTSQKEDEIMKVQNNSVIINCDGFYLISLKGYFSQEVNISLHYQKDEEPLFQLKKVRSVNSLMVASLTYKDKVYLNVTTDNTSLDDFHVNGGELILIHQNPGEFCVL
method: SPR, second injection after competitor OX40L01E07
measure: Binding Level sample 2 (RU)

- binder: "OX40L01B11 (VHH, monovalent Nanobody from E. coli; not shown: C-terminal c-myc and His6 tag) VHH: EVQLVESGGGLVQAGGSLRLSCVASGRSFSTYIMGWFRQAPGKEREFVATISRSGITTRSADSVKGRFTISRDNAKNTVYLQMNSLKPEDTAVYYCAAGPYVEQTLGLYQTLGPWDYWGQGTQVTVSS"
  u: "RU"
  experimentalResult: 399
- binder: "OX40L18E09 (VHH, monovalent Nanobody from E. coli; not shown: C-terminal c-myc and His6 tag) VHH: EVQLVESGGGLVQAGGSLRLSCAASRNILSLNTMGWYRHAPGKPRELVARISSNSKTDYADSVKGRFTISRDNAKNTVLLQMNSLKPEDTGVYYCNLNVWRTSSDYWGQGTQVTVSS"
  u: "RU"
  experimentalResult: 200
- binder: "OX40L01E10 (VHH, monovalent Nanobody from E. coli; not shown: C-terminal c-myc and His6 tag) VHH: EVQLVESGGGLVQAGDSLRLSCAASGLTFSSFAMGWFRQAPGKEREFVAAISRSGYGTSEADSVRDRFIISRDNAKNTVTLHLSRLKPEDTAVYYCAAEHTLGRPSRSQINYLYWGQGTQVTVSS"
  u: "RU"
  experimentalResult: 193
